# System name: IL17-RE-IL-17C (Homo sapiens, UniProt Q8NFR9+Q9P0M4)
# Sequence (Q9P0M4 whole entry): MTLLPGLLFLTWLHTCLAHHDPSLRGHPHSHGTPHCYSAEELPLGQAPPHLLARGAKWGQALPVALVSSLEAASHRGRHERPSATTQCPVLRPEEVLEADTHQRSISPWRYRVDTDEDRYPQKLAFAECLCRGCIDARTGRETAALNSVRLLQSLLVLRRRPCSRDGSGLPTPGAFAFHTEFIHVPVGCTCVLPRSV
# Sequence (Q8NFR9 whole entry): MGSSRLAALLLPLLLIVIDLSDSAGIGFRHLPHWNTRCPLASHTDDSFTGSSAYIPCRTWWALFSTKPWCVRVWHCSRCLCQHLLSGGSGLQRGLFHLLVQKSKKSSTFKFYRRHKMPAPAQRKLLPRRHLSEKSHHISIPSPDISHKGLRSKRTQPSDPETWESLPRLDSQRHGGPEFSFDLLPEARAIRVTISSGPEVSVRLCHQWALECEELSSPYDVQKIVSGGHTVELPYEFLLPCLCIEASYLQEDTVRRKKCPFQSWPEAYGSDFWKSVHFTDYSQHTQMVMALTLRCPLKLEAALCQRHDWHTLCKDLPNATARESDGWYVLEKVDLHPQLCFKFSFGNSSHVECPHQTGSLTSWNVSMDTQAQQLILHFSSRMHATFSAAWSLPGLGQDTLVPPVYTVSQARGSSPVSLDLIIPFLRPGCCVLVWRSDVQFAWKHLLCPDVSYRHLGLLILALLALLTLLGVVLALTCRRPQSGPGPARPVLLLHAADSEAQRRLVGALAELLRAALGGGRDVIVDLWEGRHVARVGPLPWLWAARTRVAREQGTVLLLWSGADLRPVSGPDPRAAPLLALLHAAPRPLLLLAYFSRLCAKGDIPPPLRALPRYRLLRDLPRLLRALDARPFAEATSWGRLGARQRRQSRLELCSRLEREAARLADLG
# Protocol description: Inhibition of IL-17C/IL-17RE interaction (unknown origin) incubated for 1.5 hrs by ELISA method
Positions of bridges follow the written chain, without caps; N, C: chain ends. Residues, ends and D or L forms follow the SMILES beside them.

Compound | System name | IC50
CC[C@H](C)[C@@H]1NC(=O)[C@H](CCCNC(=N)N)NC(=O)[C@H](Cc2ccc(O)cc2)NC(=O)[C@H](Cc2c[nH]cn2)NC(=O)[C@H](Cc2c[nH]cn2)NC(=O)[C@H](Cc2c[nH]cn2)NC(=O)[C@H](Cc2ccc(O)cc2)NC(=O)CSC[C@@H](C(=O)NCC(N)=O)NC(=O)CNC(=O)[C@H](CC(C)C)NC(=O)[C@H](CCC(=O)O)NC(=O)CNC(=O)[C@H](Cc2ccc(O)cc2)NC(=O)[C@H](CC(C)C)NC1=O ({CH2CO}-YHHHYRILYGELGCG-NH2; thioether N-14) | IL17-RE-IL-17C (Homo sapiens, UniProt Q8NFR9+Q9P0M4) | 6.85 µM
CC(C)C[C@@H]1NC(=O)[C@H](CO)NC(=O)CNC(=O)[C@H](Cc2ccc(O)cc2)NC(=O)[C@H](CC(C)C)NC(=O)[C@H](CO)NC(=O)[C@H](Cc2ccc(O)cc2)NC(=O)[C@H](Cc2ccc(O)cc2)NC(=O)[C@H](Cc2ccc(O)cc2)NC(=O)[C@H](C(C)C)NC(=O)[C@H](Cc2c[nH]cn2)NC(=O)[C@H](Cc2ccc(O)cc2)NC(=O)CSC[C@@H](C(=O)NCC(N)=O)NC(=O)CNC1=O ({CH2CO}-YHVYYYSLYGSLGCG-NH2; thioether N-14) | IL17-RE-IL-17C (Homo sapiens, UniProt Q8NFR9+Q9P0M4) | 0.0033 µM

* * *

# System name: IL17-RE-IL-17C (Homo sapiens, UniProt Q8NFR9+Q9P0M4)
# Protocol description: Inhibition of IL-17C/IL-17RE interaction (unknown origin) incubated for 1.5 hrs by ELISA method
Positions of bridges follow the written chain, without caps; N, C: chain ends. Residues, ends and D or L forms follow the SMILES beside them.
As shown below, each of these compounds has a reported IC50 value.

Compound | IC50 [nM]
CC[C@H](C)[C@@H]1NC(=O)[C@H](Cc2c[nH]cn2)NC(=O)[C@H](Cc2ccc(O)cc2)NC(=O)CSC[C@@H](C(=O)NCC(N)=O)NC(=O)CNC(=O)[C@H](CC(C)C)NC(=O)[C@H](Cc2c[nH]cn2)NC(=O)CNC(=O)[C@H](Cc2ccc(O)cc2)NC(=O)[C@H](CC(C)C)NC(=O)[C@H](CO)NC(=O)[C@H](Cc2ccccc2)NC(=O)[C@H](Cc2ccc(O)cc2)NC(=O)[C@H](Cc2ccc(O)cc2)NC1=O ({CH2CO}-YHIYYFSLYGHLGCG-NH2; thioether N-14) | 6.2
CC[C@H](C)[C@@H]1NC(=O)[C@H](CCCNC(=N)N)NC(=O)[C@H](Cc2ccc(O)cc2)NC(=O)[C@H](Cc2ccc(O)cc2)NC(=O)[C@H](Cc2c[nH]cn2)NC(=O)[C@H](Cc2c[nH]cn2)NC(=O)[C@H](Cc2ccc(O)cc2)NC(=O)CSC[C@@H](C(=O)NCC(N)=O)NC(=O)CNC(=O)[C@H](CC(C)C)NC(=O)[C@H](C(C)C)NC(=O)CNC(=O)[C@H](Cc2ccc(O)cc2)NC(=O)[C@H](CC(C)C)NC1=O ({CH2CO}-YHHYYRILYGVLGCG-NH2; thioether N-14) | 442
